test system: Staphylococcus aureus S13E; assay type: cell-based
Recorded measurements of MIC, one per entry
Answer with the value and then the unit.

compound | targetOrSystem | MIC
CNC(CC(C)C)C(=O)NC1C(=O)NC(CC(N)=O)C(=O)NC2C(=O)NC3C(=O)NC(C(=O)NC(C(=O)O)c4cc(O)cc(O)c4-c4cc3ccc4O)C(OC3CC(C)(N)C(O)C(C)O3)c3ccc(c(Cl)c3)Oc3cc2cc(c3OC2OC(CO)C(O)C(O)C2OC2CC(C)(NCc3cccc(Oc4cccc(C(F)(F)F)c4)c3)C(O)C(C)O2)Oc2ccc(cc2Cl)C1O (stereo not drawn) [Compound 111] | Staphylococcus aureus S13E | 1 µg/mL
CC(C)CC(C(=O)NC1C(=O)NC(CC(N)=O)C(=O)NC2C(=O)NC3C(=O)NC(C(=O)NC(C(=O)O)c4cc(O)cc(O)c4-c4cc3ccc4O)C(OC3CC(C)(N)C(O)C(C)O3)c3ccc(c(Cl)c3)Oc3cc2cc(c3OC2OC(CO)C(O)C(O)C2OC2CC(C)(NCC3CC=CCC3)C(O)C(C)O2)Oc2ccc(cc2Cl)C1O)N(C)CC1CC=CCC1 (stereo not drawn) | Staphylococcus aureus S13E | 1 µg/mL

Consider the additional compound presented here.
Summary for this compound, `CN[C@H](CC(C)C)C(=O)N[C@H]1C(=O)N[C@@H](CC(N)=O)C(=O)N[C@H]2C(=O)N[C@H]3C(=O)N[C@H](C(=O)N[C@H](C(=O)O)c4cc(O)cc(O)c4-c4cc3ccc4O)[C@H](O[C@H]3C[C@](C)(N)[C@@H](O)[C@H](C)O3)c3ccc(c(Cl)c3)Oc3cc2cc(c3O[C@@H]2O[C@H](CO)[C@@H](O)[C@H](O)[C@H]2O[C@H]2C[C@](C)(NCc3ccc(OCc4ccc(Cl)cc4)cc3)[C@@H](O)[C@H](C)O2)Oc2ccc(cc2Cl)[C@H]1O` : MIC is 1 µg/mL

* * *

system: Staphylococcus aureus S13E; assay type: cell-based
Recorded measurements of MIC, one per entry

compound | targetOrSystem | MIC
CNC(CC(C)C)C(=O)NC1C(=O)NC(CC(N)=O)C(=O)NC2C(=O)NC3C(=O)NC(C(=O)NC(C(=O)O)c4cc(O)cc(O)c4-c4cc3ccc4O)C(OC3CC(C)(N)C(O)C(C)O3)c3ccc(c(Cl)c3)Oc3cc2cc(c3OC2OC(CO)C(O)C(O)C2OC2CC(C)(NCc3ccc(OC(F)F)cc3)C(O)C(C)O2)Oc2ccc(cc2Cl)C1O (stereo not shown) | Staphylococcus aureus S13E | ≤ 0.06 µg/mL
CNC(CC(C)C)C(=O)NC1C(=O)NC(CC(N)=O)C(=O)NC2C(=O)NC3C(=O)NC(C(=O)NC(C(=O)O)c4cc(O)cc(O)c4-c4cc3ccc4O)C(OC3CC(C)(N)C(O)C(C)O3)c3ccc(c(Cl)c3)Oc3cc2cc(c3OC2OC(CO)C(O)C(O)C2OC2CC(C)(NCc3cccnc3)C(O)C(C)O2)Oc2ccc(cc2Cl)C1O (stereo not shown) | Staphylococcus aureus S13E | ≤ 0.06 µg/mL

Summary for this compound, CNC(CC(C)C)C(=O)NC1C(=O)NC(CC(N)=O)C(=O)NC2C(=O)NC3C(=O)NC(C(=O)NC(C(=O)O)c4cc(O)cc(O)c4-c4cc3ccc4O)C(OC3CC(C)(N)C(O)C(C)O3)c3ccc(c(Cl)c3)Oc3cc2cc(c3OC2OC(CO)C(O)C(O)C2OC2CC(C)(NCc3cccc4c([N+](=O)[O-])cccc34)C(O)C(C)O2)Oc2ccc(cc2Cl)C1O (stereo not shown) : MIC is ≤ 0.06 µg/mL

Summary for this compound, CC(C)CC(C(=O)NC1C(=O)NC(CC(N)=O)C(=O)NC2C(=O)NC3C(=O)NC(C(=O)NC(C(=O)O)c4cc(O)cc(O)c4-c4cc3ccc4O)C(OC3CC(C)(NCc4ccc(-c5ccccc5)cc4)C(O)C(C)O3)c3ccc(c(Cl)c3)Oc3cc2cc(c3OC2OC(CO)C(O)C(O)C2OC2CC(C)(NCc3ccc(-c4ccccc4)cc3)C(O)C(C)O2)Oc2ccc(cc2Cl)C1O)N(C)Cc1ccc(-c2ccccc2)cc1 (stereo not shown) : MIC is > 64 µg/mL

Values were extracted from patent US5840684A.
